The measurements presented in this section are drawn from the supplement of paper PMC10567573.

B1: MYBL2 (parent)
chain: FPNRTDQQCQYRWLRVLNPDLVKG

Variants of: B1
MEASUREMENT_DESCRIPTION: protein stability index of a GFP-peptide fusion (GPS, HEK-293T) (PSI 1-6); higher = more stable;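 further: lentivirally expressed fusions sorted by FACS into six bins by GFP to DsRed ratio, PSI derived from sequencing read proportions per bin multiplied by bin number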
MEASUREMENT_PARAMETERS: c terminus: a fixed tail appended
PROPERTY_LABEL: protein stability index

>  <INPUT_SEQUENCE>
FPNRTDQQCQYRWLWVLNPDLVKG

>  <NUMERIC_READOUT>
2.96

$$$$
>  <INPUT_SEQUENCE>
FPNRTDQQCQYRWMRVLNPDLVKG

>  <NUMERIC_READOUT>
2.12

$$$$
>  <INPUT_SEQUENCE>
FPNRTDQQCQYRWLRVLNPDDVKG

>  <NUMERIC_READOUT>
2.12

$$$$
>  <INPUT_SEQUENCE>
FPNRTKQQCQYRWLRVLNPDLVKG

>  <NUMERIC_READOUT>
2.06

$$$$
>  <INPUT_SEQUENCE>
FPNRTDQDCQYRWLRVLNPDLVKG

>  <NUMERIC_READOUT>
2.09

$$$$
>  <INPUT_SEQUENCE>
FPNRTDQQCQYRWLRVLNPDLVSG

>  <NUMERIC_READOUT>
1.26

$$$$
>  <INPUT_SEQUENCE>
FPNRADQQCQYRWLRVLNPDLVKG

>  <NUMERIC_READOUT>
2.73

$$$$
>  <INPUT_SEQUENCE>
FPNRTDMQCQYRWLRVLNPDLVKG

>  <NUMERIC_READOUT>
1.96

$$$$
>  <INPUT_SEQUENCE>
FPNRTDQQCQYRWLRVLNPMLVKG

>  <NUMERIC_READOUT>
1.89

$$$$
>  <INPUT_SEQUENCE>
FPNRTDQQCQYRWLRVLNPWLVKG

>  <NUMERIC_READOUT>
2.27

$$$$
>  <INPUT_SEQUENCE>
FPNRTDQQCQYRWLRVLLPDLVKG

>  <NUMERIC_READOUT>
2.74

$$$$
>  <INPUT_SEQUENCE>
FPNRTDQQCQYPWLRVLNPDLVKG

>  <NUMERIC_READOUT>
1.96

$$$$
>  <INPUT_SEQUENCE>
FPNETDQQCQYRWLRVLNPDLVKG

>  <NUMERIC_READOUT>
2.51

$$$$
>  <INPUT_SEQUENCE>
FPNRWDQQCQYRWLRVLNPDLVKG

>  <NUMERIC_READOUT>
2

$$$$
>  <INPUT_SEQUENCE>
FPNRTDQQCQYRWLRVLNEDLVKG

>  <NUMERIC_READOUT>
1.85

$$$$
>  <INPUT_SEQUENCE>
FPNRTDGQCQYRWLRVLNPDLVKG

>  <NUMERIC_READOUT>
2.96

$$$$
>  <INPUT_SEQUENCE>
FPNRTDQQCQYRWLRVLNPDLVKK

>  <NUMERIC_READOUT>
2.01

$$$$
>  <INPUT_SEQUENCE>
FPNRTDQQCQYRWLEVLNPDLVKG

>  <NUMERIC_READOUT>
2.44

$$$$
>  <INPUT_SEQUENCE>
FPNRTDQQCQYRWLRVLNPDHVKG

>  <NUMERIC_READOUT>
1.48

$$$$
>  <INPUT_SEQUENCE>
FPNRTDQQCQYRWLRVLNPDLVNG

>  <NUMERIC_READOUT>
2.11

$$$$
>  <INPUT_SEQUENCE>
FPNRTDQQCQYRWLRRLNPDLVKG

>  <NUMERIC_READOUT>
1.56

$$$$
>  <INPUT_SEQUENCE>
FPNRTDQQCLYRWLRVLNPDLVKG

>  <NUMERIC_READOUT>
2.34

$$$$
